Target: FGFR3 (UniProt P22607)
Sequence (P22607 whole entry, looked up): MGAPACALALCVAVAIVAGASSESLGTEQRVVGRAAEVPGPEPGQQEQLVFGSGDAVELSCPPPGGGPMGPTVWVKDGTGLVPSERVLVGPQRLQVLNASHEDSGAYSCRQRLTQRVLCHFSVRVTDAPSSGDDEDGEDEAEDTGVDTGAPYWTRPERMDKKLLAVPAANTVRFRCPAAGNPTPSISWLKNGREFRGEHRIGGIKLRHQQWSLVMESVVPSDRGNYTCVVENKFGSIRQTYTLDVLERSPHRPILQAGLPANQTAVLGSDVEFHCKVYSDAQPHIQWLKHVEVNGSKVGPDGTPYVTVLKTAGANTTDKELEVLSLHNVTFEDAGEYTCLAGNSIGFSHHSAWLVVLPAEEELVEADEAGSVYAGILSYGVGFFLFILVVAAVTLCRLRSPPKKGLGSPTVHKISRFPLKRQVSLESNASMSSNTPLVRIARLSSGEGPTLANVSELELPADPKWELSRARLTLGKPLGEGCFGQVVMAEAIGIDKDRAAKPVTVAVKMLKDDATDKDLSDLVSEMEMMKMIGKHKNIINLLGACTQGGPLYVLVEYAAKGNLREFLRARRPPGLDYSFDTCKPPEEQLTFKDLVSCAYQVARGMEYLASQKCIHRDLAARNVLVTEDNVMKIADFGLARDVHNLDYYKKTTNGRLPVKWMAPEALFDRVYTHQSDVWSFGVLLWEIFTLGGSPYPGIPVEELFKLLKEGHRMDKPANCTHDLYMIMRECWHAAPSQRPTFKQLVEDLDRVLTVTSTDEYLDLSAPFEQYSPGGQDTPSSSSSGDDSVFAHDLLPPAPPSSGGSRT
Test: phosphorylation enrichment, bacterial display (enrichment ratio); higher = better substrate or ligand; peptides without Tyr show the background
observation.type: phosphorylation enrichment
Enter the number alone.

# count of solved cases: 6
INSERT INTO results (sequence_record, observation_type, quantitative_result) VALUES
  ('APSHAYHGGVL [ANO1_Y981]', 'phosphorylation enrichment', 0.427),
  ('SIKDKYVMALF [KCNH2_Y611_T613M_YF]', 'phosphorylation enrichment', 0.574),
  ('PLTRSYIREKV [CYP2C8_Y243_A238P]', 'phosphorylation enrichment', 0.48),
  ('DDEVFYSPRSL [OTC_Y317]', 'phosphorylation enrichment', 0.847),
  ('LDTIQYSKHPP [SQSTM1_Y433]', 'phosphorylation enrichment', 1.08),
  ('ADFPDYKFRPR [SOX11_Y116_YF]', 'phosphorylation enrichment', 0.58);

Task item: // phosphorylation enrichment lookup, key: LIDGFYRLTED [JAK2_Y373_A377E_YF]
Reply: 0.747

Task item: Same question, ASFGPNTRVQS [FOXL2_Y258_Y258N_YF] this time
Reply: 0.442

Task item: Same question, EELLHYAIVTP [POC5_Y37] this time
Reply: 1.1

Task item: Same question, PVLSLYASGRT [ACTA1_Y145_A140P] this time
Reply: 0.703

Task item: Same question, KLLPEYPGILS [DHFR2_Y163_V166I] this time
Reply: 0.524

Task item: Same question, NDENIYKGLPD [VAV3_Y141_D139N] this time
Reply: 0.799

Task item: Same question, AALSAYAPQRP [PTPRN2_Y249_A251P] this time
Reply: 0.584

Task item: Same question, SWSTSYSGYRY [NKAPL_Y91] this time
Reply: 0.656

Task item: Same question, EFAAGYNVKFD [GPX4_Y123] this time
Reply: 0.544

Task item: Same question, FFVVRYCWLRR [MPZ_Y181_YF] this time
Reply: 0.609

Task item: Same question, IYGASYVPFAA [RBM47_Y541] this time
Reply: 0.708

Task item: Same question, EQKKYYNAMKK [SCN5A_Y1495] this time
Reply: 0.4

Task item: Same question, KDDEKYLDVSR [MTM1_Y260_I264S] this time
Reply: 0.655

Task item: Same question, MMVGAYSTLEG [ECPAS_Y470] this time
Reply: 0.676

Task item: Same question, RLLRGYDQLAY [HLA-C_Y137_S140L] this time
Reply: 0.976

Task item: Same question, AGIENYKSRFG [NKD2_Y256_T257K] this time
Reply: 0.452

Task item: Same question, ACQGKYTPSGQ [ALDOA_Y343] this time
Reply: 0.734

* * *

Target: Grb2 SH2 (UniProt P62993)
Sequence (P62993 whole entry, looked up): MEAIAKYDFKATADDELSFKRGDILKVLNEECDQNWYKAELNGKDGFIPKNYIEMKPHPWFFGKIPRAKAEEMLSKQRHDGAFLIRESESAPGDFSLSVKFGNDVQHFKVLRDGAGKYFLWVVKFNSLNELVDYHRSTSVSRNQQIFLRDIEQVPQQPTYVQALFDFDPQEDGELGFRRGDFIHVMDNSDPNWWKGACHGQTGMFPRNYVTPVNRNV
Assay: SH2 binding enrichment of the phosphorylated peptide, bacterial display (enrichment ratio); higher = better substrate or ligand; peptides without Tyr show the background
observation.type: SH2 binding enrichment
Enter the number alone.

INSERT INTO measurements (sequence_record, observation_type, quantitative_result) VALUES
  ('TRSYKYLLLSM [NF1_Y491]', 'SH2 binding enrichment', 1.64),
  ('VNYGAYINYFK [GLB1_Y488_D491Y]', 'SH2 binding enrichment', 3.13),
  ('NKHTTYTMEHI [ACTN1_Y708_N707T]', 'SH2 binding enrichment', 0.865);

Task item: // SH2 binding enrichment lookup, key: FRKNTYNVKST [SYNE2_Y575_I574T_YF]
Reply: 1.27

Task item: Same question, KMKGDYFCFLA [YWHAG_Y130_R132C_YF] this time
Reply: 0.854
